# protocolSummary: ovarian cancer cell viability with rucaparib, profiling panel, oncology-focused library, rucaparib conditional (AID 1508598)
# protocolConditions: patient-derived ovarian cancer cells, CellTiter-Glo viability, 144 h; at 5 µM; OCI-C5x cells; with rucaparib 10 µM; stronger effect = lower value; 100% = cells with rucaparib alone
observedProperty: viability (%)
Give bare numbers, in %.

| compound | assayValue |
| --- | --- |
| O=C1CCC(N2C(=O)c3ccccc3C2=O)C(=O)N1 (stereo unspecified) | 116 |
| CCN(CC)C(=S)SSC(=S)N(CC)CC | 113 |
| S=c1nc[nH]c2nc[nH]c12 | 126 |
| Cc1ccc(-c2cc(C(F)(F)F)nn2-c2ccc(S(N)(=O)=O)cc2)cc1 | 122 |
| NC(=O)c1ccc(-c2nc(-c3ccc4c(c3)OCO4)c(-c3ccccn3)[nH]2)cc1 | 198 |

Then there is this compound:
Return viability (reported value) for this compound: `CC(C)C(=O)Nc1ccc([N+](=O)[O-])c(C(F)(F)F)c1` 112

###

# protocolSummary: activators of macrophage pro-inflammatory response, cell-based, murine, luminescence (AID 652131)
# protocolConditions: murine macrophage pro-inflammatory reporter, stronger effect = higher value
z-score below -0.4 gives not met; z-score at or above it gives met.

# example entries with known answers
| smilesData | label |
| --- | --- |
| CCN(CC)S(=O)(=O)c1ccc(OC)c(Nc2ncc(-c3ccccc3)o2)c1 | met |
| Cc1cc(Cl)cc2c(N=Nc3ccc(S(N)(=O)=O)cc3)c(O)[nH]c12 | met |
| COc1ccc2ncn(-c3cc(O[C@H](C)c4ccccc4C(F)(F)F)c(C(N)=O)s3)c2c1 | not met |
| N#Cc1c(NC(=O)c2cccc3ccccc23)sc2c1CCCN2C(=O)C1CC1 | not met |
| NCc1ccc(-c2nc(-c3ccc(Cl)c(O)c3)c(-c3ccncc3)[nH]2)cc1 | not met |
| COC(=O)Nc1nc2ccc(S(=O)(=O)c3ccc(NC(=O)Nc4cc(C(F)(F)F)ccc4F)cc3)cc2[nH]1 | met |
| O=S1CCN(Cc2ccc(-c3ccc4ncnc(Nc5ccc(OCc6ccccc6)c(F)c5)c4c3)o2)CC1 | met |
| COc1ccccc1C1=C(Nc2ccccc2)C(=O)NC1=O | met |

Does the compound `CC(=O)NCc1cccc(C#Cc2cncnc2Nc2ccc(OCc3cccc(F)c3)c(Cl)c2)c1` have recorded z-score that is -0.4 or more? not met

###

# protocolSummary: HCT116 colon cancer cell growth inhibition, primary screen, CellTiter-Glo luminescence, NPC library (AID 1117342)
# protocolConditions: at 20 µM (top of the series)
Residues, ends and D or L forms follow the SMILES beside them.
observedProperty: inhibition of viability (%)
Numbers only, in %.

| compound | assayValue |
| --- | --- |
| CCc1oc2ccccc2c1C(=O)c1cc(I)c(O)c(I)c1 | 99 |
| Cc1cc(O)c(C)c(C)c1O | -1.8 |
| CC(=O)N[C@@H](CO)C(=O)N[C@@H](CC(=O)O)C(=O)N[C@@H](CCCCN)C(=O)N1CCC[C@H]1C(=O)O (Ac-SDKP-OH) | -0.1 |
| CCOC(=O)C(=O)CCc1ccccc1 | 10.3 |
| NCc1ccccc1Sc1ccccc1CO | 6.13 |

Then there is this compound:
Return inhibition of viability (reported value) for this compound: `CCCOC(=O)c1cc(O)c(O)c(O)c1` 35.1
